Each entry below lists one item and its recorded optical density value.
assayed_system: human ACVR2A (human, UniProt P27037 20-135, limits assumed); also: test concentration or dose not given here
Sequence (P27037 20-135 limits assumed): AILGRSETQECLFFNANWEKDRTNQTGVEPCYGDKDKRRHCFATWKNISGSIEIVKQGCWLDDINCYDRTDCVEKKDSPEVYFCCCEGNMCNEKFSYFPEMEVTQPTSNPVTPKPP
assay_text: ELISA
# number only, unit OD dropped from output

Here's what some known entries look like.
{"binder": "367_A01 (antibody, V domains shown, VH/VL only) VH: EVQLLESGGGLVQPGGSLRLSCAASGFTFSSYSMNWVRQAPGKGLEWVASINYNGGYTGYADSVKGRFTISRDNSKNTLYLQMNSLRAEDTAVYYCARSATWHDTHLDYWGQGTLVTVSS VL: DIQMTQSPSSLSASVGDRVTITCRASQSILTYLNWYQQKPGKAPKLLIYAATSRASGVPSRFSGSGSGTDFTLTISSLQPEDFATYYCQQSYDLPLTFGGGTKVEIK", "optical density (OD)": 3.18}
{"binder": "375_A05 (antibody, V domains shown, VH/VL only) VH: EVQLLESGGGLVQPGGSLRLSCAASGFTFSSYGMNWVRQAPGKGLEWVANINYNGGYKGYADSVKGRFTISRDNSKNTLYLQMNSLRAEDTAVYYCARSANWHDTALDYWGQGTLVTVSS VL: DIQMTQSPSSLSASVGDRVTITCRASQSILSYLNWYQQKPGKAPKLLIYAATSRASGVPSRFSGSGSGTDFTLTISSLQPEDFATYYCQQSYDLPLTFGGGTKVEIK", "optical density (OD)": 3.72}

Reported optical density, binder 368_H12 (antibody, V domains shown, VH/VL only) VH: EVQLLESGGGLVQPGGSLRLSCAASGFTFDSYSMNWVRQAPGKGLEWVASINYNSGYKGYADSVKGRFTISRDNSKNTLYLQMNSLRAEDTAVYYCARSATWHDTHLDYWGQGTLVTVSS VL: DIQMTQSPSSLSASVGDRVTITCRASQSIVTYLNWYQQKPGKAPKLLIYAATSRASGVPSRFSGSGSGTDFTLTISSLQPEDFATYYCQQSYESPLTFGGGTKVEIK : ____
2.64

Reference source: patent US20210380703A1
